tested on: mouse TrkB extracellular domain fused to the transmembrane and cytoplasmic domains of human TrkB, expressed … (mouse; human, UniProt Q16620 431-822, limits assumed)
Sequence (Q16620 other isoform, or with tags, fused parts or gaps limits assumed, form in doubt): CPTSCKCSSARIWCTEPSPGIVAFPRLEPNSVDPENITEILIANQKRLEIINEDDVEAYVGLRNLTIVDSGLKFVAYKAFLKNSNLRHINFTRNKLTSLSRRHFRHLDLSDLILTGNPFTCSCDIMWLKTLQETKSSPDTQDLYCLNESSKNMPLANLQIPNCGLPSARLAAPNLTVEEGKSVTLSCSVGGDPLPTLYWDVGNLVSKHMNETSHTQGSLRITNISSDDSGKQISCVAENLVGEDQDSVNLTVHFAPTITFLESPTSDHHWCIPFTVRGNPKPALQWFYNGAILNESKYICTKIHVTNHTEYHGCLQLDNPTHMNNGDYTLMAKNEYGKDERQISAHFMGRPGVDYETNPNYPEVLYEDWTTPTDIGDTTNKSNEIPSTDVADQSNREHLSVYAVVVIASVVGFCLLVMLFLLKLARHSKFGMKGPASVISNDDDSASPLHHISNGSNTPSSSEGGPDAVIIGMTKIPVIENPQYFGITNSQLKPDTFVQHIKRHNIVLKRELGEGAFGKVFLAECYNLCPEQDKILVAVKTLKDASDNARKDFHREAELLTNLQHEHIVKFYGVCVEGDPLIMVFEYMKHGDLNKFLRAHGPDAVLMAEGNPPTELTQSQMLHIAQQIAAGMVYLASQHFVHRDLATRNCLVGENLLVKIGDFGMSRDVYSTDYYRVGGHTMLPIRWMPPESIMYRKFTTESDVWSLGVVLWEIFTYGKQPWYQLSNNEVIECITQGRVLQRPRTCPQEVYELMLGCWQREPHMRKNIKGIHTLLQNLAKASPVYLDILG
measurement description: cell-based or functional assay
outcome measure: EC50 (M), SRE-luciferase, 100 pM BDNF

Inquiry: Tell me EC50 (M), SRE-luciferase, 100 pM BDNF reported for M2aM14178N (antibody, mouse IgG2a, V domains shown, Anti-mouse TrkB antibody from hybridoma, mouse IgG2a Fc; also called surrogate anti-mouse TrkB antibody) VH: EVQLVESGGGLVKPGGSLKLSCTASGFTFSSYAMSWVRQTPEKRLEWVANISDGGTYTYYPDNIKGRFTISRDNAKNNLYLQMSHLESEDTAMYYCIRGDVYYVRFAYWGQGTLVTVSA VL: QAVVTQESALTTSPGETVTLTCRSSTGAVTSSNHANWVQEKPDHLFTGLIGGTNNRAPGVPARFSGSLIGDKAALTITGAQTEDEAIYFCALWHSNHWVFGGGTKLTVLG
Reply text: 1e-10 M
